tested on: West Nile virus (2002 Texas isolate); experiment: microbe, parasite or virus in culture; type: cell-based; details: West Nile virus, BHK, read-out: West Nile EC50
endpoint label: EC50

molecule	system under test	observed result
OC[C@H]1NC[C@H](O)[C@@H](O)[C@@H]1O [DNJ, deoxynojirimycin, reference compound]	West Nile virus (2002 Texas isolate)	> 500 µM

###

system: Ebola (Zaire strain); type: cell-based, Ebola virus

compound	censoring qualifier	EC90, µM
C[C@@H]1CCCCC1OCCCCCCN1C[C@H](O)[C@@H](O)[C@H](O)[C@H]1CO (stereo partly shown)	=	5
CCCCCCCCCN1C[C@H](O)[C@@H](O)[C@H](O)[C@H]1CO [NNDNJ, N-nonyl-DNJ, reference compound]	=	85
OC[C@@H]1[C@@H](O)[C@H](O)[C@@H](O)CN1CCCCCC1(O)CCCCC1 [OSL95-II, N-pentyl-(1-hydroxycyclohexyl)-DNJ, reference compound]	=	8
CC(=O)O.CC1CCC(OCCCCCCN2C[C@H](O)[C@@H](O)[C@H](O)[C@H]2CO)CC1 (stereo partly shown)	>	100

###

Catalogue of compounds with associated pEC50
tested on: West Nile virus (2002 Texas isolate); assay: microbe, parasite or virus in culture; type: cell-based; conditions: read-out: WNV EC50
pEC50: −log10 of the molar value.
endpoint label: pEC50

compound	endpoint label	observed result
C[C@@H]1CCCCC1OCCCCCCN1C[C@H](O)[C@@H](O)[C@H](O)[C@H]1CO (stereo partly shown)	pEC50	5.46
Cc1ccc(C)c(OCCCCCCN2C[C@H](O)[C@@H](O)[C@H](O)[C@H]2CO)c1	pEC50	5.82
CC(C)[C@@H]1CC[C@@H](C)C[C@H]1OCCCCCCN1C[C@H](O)[C@@H](O)[C@H](O)[C@H]1CO	pEC50	5.32
OC[C@@H]1[C@@H](O)[C@H](O)[C@@H](O)CN1CCCCCC1(O)CCCCC1 [OSL95-II, N-pentyl-(1-hydroxycyclohexyl)-DNJ, reference compound]	pEC50	5.35

###

Catalogue of compounds with associated CC50
test system: BHK cells; assay: Cytotoxicity (MTT) in BHK cells; assay type: cell-based; conditions: BHK cells (for Dengue and West Nile virus), 3 days treatment; read-out: CC50

compound	system under test	CC50
CCCCCCCCCN1C[C@H](O)[C@@H](O)[C@H](O)[C@H]1CO [NNDNJ, N-nonyl-DNJ, reference compound]	BHK cells	20 to 100 µM
CCCCN1C[C@H](O)[C@@H](O)[C@H](O)[C@H]1CO [NBDNJ, N-butyl-DNJ, reference compound]	BHK cells	20 to 100 µM
CC(=O)O.CC1CCC(OCCCCCCN2C[C@H](O)[C@@H](O)[C@H](O)[C@H]2CO)CC1 (stereo partly shown)	BHK cells	> 100 µM
OC[C@@H]1[C@@H](O)[C@H](O)[C@@H](O)CN1CCCCCC1(O)CCCCC1 [OSL95-II, N-pentyl-(1-hydroxycyclohexyl)-DNJ, reference compound]	BHK cells	> 100 µM

// data source = patent US9040488B2
